Parameter: yeast fitness. Scope: all listed entries.
B1: tRNA (parent)
chain: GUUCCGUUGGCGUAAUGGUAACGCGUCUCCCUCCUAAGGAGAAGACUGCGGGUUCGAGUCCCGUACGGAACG

variants of: B1; experiment: yeast fitness relative to wild type (ratio to wild type); higher = fitter; tRNA-Arg(CCU), competitive growth, 37 C, YPD
This sample holds only a part of the variants without activity.
quantity.name: yeast fitness

In [3]: df
Out[3]:
                             sequence_record  result_value
 0  GUUCCGUUGGCGUAAUGAUAACGCGUCUCCAUCCUAAGGAGAGGACUGCAGGUUCGUGUCCCGUACGGAACG [G18A C31A A43G G50A A57U]         0.572
 1  GUUCCGUCAGCAUAAUGGUAACGCGUCUCCCUCCUAAGGAGAAGACUGCGGGUUCGAGUUCCGUACGGAACG [U8C G9A G12A C60U]         ≤ 0.5
 2  GUUCCGUUGGUGGAAUGGAAAGGCAUCUCCCUCCUAAGGAGAAGACUGCGGGUUCGAGUCCCGUCCGGAACG [C11U U13G U19A C22G G25A A65C]         ≤ 0.5
 3  GUUCCGUUGGCGUAAUGGUAACGCGUCUCCGUCCUAAGGAGAAGACUGCGGGUUCGAAUCACGUACGGAACG [C31G G58A C61A]         0.708
 4  GAUCCGUUGGCGUAAUGGUAACGCGUCUCCCUCCUAAGGAGAAGACUGCCGGUUCAGGUCCCGUACGGAACG [U2A G50C G56A A57G]         ≤ 0.5
 5  GUUCGGUUGGCGUAAUGGUAACGCAUCUCCCUCCUAAGGAGAAGACUGCGGGUGUGAGUCCCGUACGGACCG [C5G G25A U54G C55U A70C]         ≤ 0.5
 6  GUUACAUUGGCGUAAUGGUACCGUGUCUCCCUCCUAAGGAGAGGACUGCGGGUUCGAGUCCCGUACGGAACG [C4A G6A A21C C24U A43G]         ≤ 0.5
 7  GUGCCGUUGGCGUAAUGGUCACGCGUCUCCCUCCUAAGGAGAUGACUGCGGGUUAGAGUCCCGUUCGGAGCG [U3G A20C A43U C55A A65U A70G]         ≤ 0.5
 8  GUUCCGUUGGCGUAAUGGUAACGAGUCUUUCUCCUAAGGAGAAGACUGCGGGUUCGAGUCCCGUACGGAACG [C24A C29U C30U]         ≤ 0.5
 9  GUUCCGUUGGCGUAAUGGUAAAGCGUCUUCCUCCUAAGGAGAAGACUGCGGGUUCGAGUCCGGUACGGAACG [C22A C29U C62G]         ≤ 0.5
10  GUUCUGUUGGCGUAAUGGUAUCGCGUCUCGCUCCUAAGGAGAAGACUGCGGGUUCAAGUCCCGUAAGGAACG [C5U A21U C30G G56A C66A]         ≤ 0.5
